- Tested on: Rattus norvegicus
- Protocol Details: CNS activity in po dosed rat assessed as protection against muricide
- Assay type: functional
- Condition: Rattus norvegicus, po; read-out: MED

| Compound | minimal effective dose, mg/kg |
| --- | --- |
| CCCCCCC(C)(C)c1cc(N)c2c(c1)OC(C)(C)C1=C2CC(C)CC1 (racemic) | 10 |
| CCCCCC(C)C(C)c1cc(N)c2c(c1)OC(C)(C)C1=C2CC(C)CC1 (racemic) | 5 |
| CCCCCc1cc(O)c2c(c1)OC(C)(C)C1=C2CC(C)CC1 (racemic) | 10 |
| CCCCCC(C)C(C)c1cc(NC(C)=O)c2c(c1)OC(C)(C)C1=C2CC(C)CC1 (racemic) | 10 |
| CCCCCC(C)C(C)c1cc(O)c2c(c1)OC(C)(C)C1=C2CC(C)CC1 (racemic) | 2.5 |

Origin of values: ChEMBL document CHEMBL3244312
